protocol_description: protein stability index of a GFP-peptide fusion (GPS, HEK-293T) (PSI 1-6); higher = more stable;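 also: 24-mer peptide tiles fused after GFP, lentivirally expressed, FACS-sorted into six equal bins by GFP/DsRed ratio, decoded by Illumina sequencing, PSI is the read-weighted mean bin number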
condition: treatment: DMSO; c terminus: a fixed tail appended
experimental_readout: protein stability index

>>> measured("SPSVPCIFCEEHFPVAEQDKLLKH [ZNF277]")
4.16
>>> measured("PQTLIMAYDYAKEVNSAEELEGLI [FEM1C]")
3.75
>>> measured("GKGRTASPINSPARGTPSPKRMPS [FSD1]")
5.13
>>> measured("IKPSENHYSLLTSQPLDREATSHY [PCDHGC5]")
3.87
>>> measured("WEALNMMGLYDGMEHLIYGEPRKL [MAGEA10]")
2.22
>>> measured("IVRFLESNWFVWVTQMNHIPMHID [FADS1]")
3.08
>>> measured("VLIDLWKITKVMDVRLDREHRVAG [CLPTM1]")
2.49
>>> measured("NTVLRFLDLKGNNLRAAGAEALGK [LRRC45]")
3.31
>>> measured("WKEWGFTGVQEVLSALLRATPGEY [SPAG8]")
2.06
>>> measured("VLISNHVTPFDHNIVNLLTTCSTP [AUP1]")
2.59
>>> measured("VKGCSMYVALFPCNECAKLIIQAG [DCTD]")
2.97
>>> measured("PSPGVLCGSARPKPYDPPGEKMVA [ATF4]")
4.37

---

protocol_description: protein stability index of a GFP-peptide fusion (GPS, HEK-293T) (PSI 1-6); higher = more stable
condition: treatment: MLN4924 1 uM, 8 h; c terminus: a fixed tail appended
Recorded protein stability index values for a group of sequences are listed next.
experimental_readout: protein stability index

>>> measured("QPHLPLLSTLAGIRVMVHGRNHTP [SCNN1D]")
2.62
>>> measured("DVKRLGKQNARFLTSMRRLSSIKR [STX11]")
2.98
>>> measured("WVCQRSTVASMMHRQETVECLKKF [CAMK2B]")
2.9
>>> measured("RSVEEAPVYSVPQLLSAMGSLCSL [SCNN1D]")
2.59
>>> measured("EICSEPVAASPAPAGERRIYRHRI [ZNF511]")
4.09
>>> measured("LKIYNKREEDFPSLREYNDFLEEV [MNAT1]")
3.68
>>> measured("NASFIDGYRQQKAYIATQGPLAET [PTPRD]")
3.53
>>> measured("ESIQRIAVHLCNALVCQVDNDHKE [ZER1]")
2.64
>>> measured("LRLEWETQQELRKIREKEEWIKLD [IQUB]")
3.44
>>> measured("GLNHSLSYDVALHRTRLQDLRVLV [SCARA5]")
2.13
>>> measured("EKLSRGLRYYYDKNIIHKTSGKRY [ETS2]")
2.92
>>> measured("KSIDDTSNFDDFPESDILQPVPNT [STK38L]")
5.27
>>> measured("HELGHVFNMLHDNSKPCISLNGPL [ADAMTS4]")
2.93
>>> measured("DEKAKPRDRQQAPGLGQESKAPGS [TLE6]")
5.49
>>> measured("LASYPLALVRTRMQAQASIEGAPE [SLC25A25]")
4.18
>>> measured("SWSIQMRQHHHQSSFPGSLPQETN")
3.53
>>> measured("LLAHRLRRWHKSRLLQASGGGLTG [PCDHGA10]")
2.07
>>> measured("GSVYFWATPRQVPSLQHLCRMSIR [WSB1]")
2.7
>>> measured("DKCSAPKIWRTPNGKTIEMDTQFT [IQUB]")
3.6
>>> measured("ISVLQQQGSLSNTYLSKVDPDGKK [FBXO33]")
4.46
>>> measured("TVVGVPSGKVSSSSSSLGNKLQTL [ZC2HC1A]")
3.73
>>> measured("EKSVTKDAEGLAARDVQKIIGDYF [INTS4]")
3.51
>>> measured("WIAHSEKLPRKVLQHVSEPQAHQE [SPACA9]")
4.05
>>> measured("EEERRRREEEERERLQKEEEKRRR [ACBD3]")
5.69
>>> measured("LAVMGYDRYIAICNPLRYSVLMGH [OR10K2]")
2.58
>>> measured("LRQLVESDINSLRRILDELTLCRS [KRT33B]")
2.41
>>> measured("DKENIYILLEYCSRRSMAHILKAR [PLK2]")
2.55
>>> measured("DRSRTVSASSTGDLPKAKTRAADL [SRPK2]")
4.68
>>> measured("KVPAPKDVLAHQVPNAKKLRRKEQ [NOP53]")
4.99
>>> measured("VVAGDTVSTGSTDNSPTSNSLEGG [ADAMTSL2]")
5.48
>>> measured("MQFLIRSHECKPEGYEFCHNRKVL [PPEF2]")
2.55
>>> measured("NNTLVALPIVAIENILSFMSYDEI [FBXO28]")
3
>>> measured("AEGSPGGPGDSQGRKRRQTSMTDF [CDKN1A]")
5.13
>>> measured("EADPEMIKRAEDYGPVEVISHWHP [CLPTM1]")
4.26
>>> measured("KSSSLLTQTSEECNGILTEKMEEE [ZNF396]")
5.54
>>> measured("GGGDISVKELGTVMRMLGQTPTKE [TNNC2]")
3.64
>>> measured("EFCRNTLCAPEVISLINTRMLFWA [FAF2]")
2.73
>>> measured("GLQVEGLRRRLEELQQELSLKDQE [LRRC45]")
4.73
>>> measured("GKKDVSHSSPVDLKIPQVRGMDLS [LCOR]")
4.24
>>> measured("KTAHDSNVLHVARLPNRQLISCSE [WDR41]")
3.57
>>> measured("MHMVDLMSSIICEGDTVSQELLDT [PDS5B]")
3.57
>>> measured("ILSLEGGYNLRALAEGVSASLHTL [HDAC6]")
2.12
>>> measured("KNSDGMEAAGVQIQMVNESLGYVR [CD207]")
4.08
>>> measured("AFQAFTNDLLEILEIDDLDAIVPA [CEP70]")
2.73
>>> measured("MEGKPMRRCTNIRPGETGMDVTSR [KLHL20]")
4.41
>>> measured("DSDSEKQQQIHHIKNLYAFNLFCQ [VPS39]")
2.71

The measurements presented in this section are drawn from the supplement of paper PMC10567573.
